Cited source: the Immune Epitope Database (IEDB)

- systemUnderTest: HLA-A*31:01
- assayOverview: IEDB peptide-MHC binding, purified MHC/competitive/fluorescence; filed as Kd, often an IC50 or EC50 that approximates it; bounds were set here for any values at or beyond the usual limits of such assays
- settings: source organism: Vaccinia virus WR
quantityName: Kd

[[record]]
entrysequence = "LTFLHTLYK"
assayresult = "224 nM"


* * *

- systemUnderTest: HLA-A*03:01
- assayOverview: IEDB peptide-MHC binding, purified MHC/competitive/fluorescence; filed as Kd, often an IC50 or EC50 that approximates it; bounds were set here for any values at or beyond the usual limits of such assays
- settings: source organism: Shigella flexneri 2a str. 301
quantityName: Kd (nM)

[[record]]
entrysequence = "VVLDLFARK"
unitsofmeasure = "nM"
assayresult = 175

